Attribution: the supplement of paper PMC11061612

system: SJRH30 (Rhabdomyosarcoma); test: Bliss excess, mean over the matrix (fraction); higher = more synergy

compound: CN(CCO)CC[C@H](CSc1ccccc1)Nc1ccc(S(=O)(=O)NC(=O)c2ccc(N3CCC([C@@H](O)c4ccccc4-c4ccc(Cl)cc4)CC3)cc2)cc1S(=O)(=O)C(F)(F)F [AZD4320] + C=CCn1c(=O)c2cnc(Nc3ccc(N4CCN(C)CC4)cc3)nc2n1-c1cccc(C(C)(C)O)n1 [AZD1775] (first compound max 1 µM, partner max 1 µM)
Bliss excess: 0.0076

compound: CCN(CCO)CCCOc1ccc2c(Nc3cc(CC(=O)Nc4cccc(F)c4)[nH]n3)ncnc2c1 [AZD2811] + C=CCn1c(=O)c2cnc(Nc3ccc(N4CCN(C)CC4)cc3)nc2n1-c1cccc(C(C)(C)O)n1 [AZD1775] (first compound max 1 µM, partner max 1 µM)
Bliss excess: 0.0089

compound: Cc1c2c(nn1C)CSCc1cc(n(C)n1)CSc1cc(c3ccccc3c1)OCCCc1c(C(=O)O)n(C)c3c-2c(Cl)ccc13 [AZD5991] + C1CN(CCC1(C(=O)N[C@@H](CCO)C2=CC=C(C=C2)Cl)N)C3=NC=NC4=C3C=CN4 [Capivasertib] (first compound max 1 µM, 7x7, partner max 3 µM)
Bliss excess: 0.0568

----------
test system: 786-0 (Kidney Carcinoma); assay: Bliss excess, mean over the matrix (fraction); higher = more synergy
measured metric: Bliss excess

compound: CC(=O)c1c(C)c2cnc(Nc3ccc(N4CCNCC4)cn3)nc2n(C2CCCC2)c1=O [Palbociclib] + CN(CC[C@H](CSC1=CC=CC=C1)NC2=C(C=C(C=C2)S(=O)(=O)NC(=O)C3=CC=C(C=C3)N4CCC(CC4)[C@H](C5=CC=CC=C5C6=CC=C(C=C6)Cl)O)S(=O)(=O)C(F)(F)F)CCO [AZD4320] (first compound max 10 µM, 7x7, partner max 1 µM)
tested target: 786-0 (Kidney Carcinoma)
observed measurement: -0.0388

compound: Cc1cc2ncnn2cc1Nc1ncc2c(n1)n(C1CCOCC1)c(=O)n2C [AZD7648] + C=CCn1c(=O)c2cnc(Nc3ccc(N4CCN(C)CC4)cc3)nc2n1-c1cccc(C(C)(C)O)n1 [AZD1775] (first compound max 10 µM, partner max 1 µM)
tested target: 786-0 (Kidney Carcinoma)
observed measurement: 0.0502

compound: CN(CCO)CC[C@H](CSc1ccccc1)Nc1ccc(S(=O)(=O)NC(=O)c2ccc(N3CCC([C@@H](O)c4ccccc4-c4ccc(Cl)cc4)CC3)cc2)cc1S(=O)(=O)C(F)(F)F [AZD4320] + CN(C)CCCOc1ccc(-c2ccc3ncc4c(c3c2)n(C2CCOCC2)c(=O)n4C)cn1 [AZD0156] (first compound max 1 µM, 7x7, partner max 1 µM)
tested target: 786-0 (Kidney Carcinoma)
observed measurement: -0.0503

compound: Cc1nc(Nc2ncc(C(=O)Nc3c(C)cccc3Cl)s2)cc(N2CCN(CCO)CC2)n1 [Dasatinib] + CC(=O)Nc1cccc(-n2c(=O)n(C3CC3)c(=O)c3c(Nc4ccc(I)cc4F)n(C)c(=O)c(C)c32)c1 [Trametinib] (first compound max 2 µM, 7x7, partner max 1 µM)
tested target: 786-0 (Kidney Carcinoma)
observed measurement: -0.0592

compound: CC1(C)CCC(CN2CCN(c3ccc(C(=O)NS(=O)(=O)c4ccc(NCC5CCOCC5)c([N+](=O)[O-])c4)c(Oc4cnc5[nH]ccc5c4)c3)CC2)=C(c2ccc(Cl)cc2)C1 [Venetoclax] + C[C@@H]1COCCN1C2=NC(=NC(=C2)C3(CC3)[S@](=N)(=O)C)C4=C5C=CNC5=NC=C4 [AZD6738] (first compound max 1 µM, 7x7, partner max 10 µM)
tested target: 786-0 (Kidney Carcinoma)
observed measurement: -0.0882

compound: C[C@@H]1COCCN1c1cc(C2([S@](C)(=N)=O)CC2)nc(-c2ccnc3[nH]ccc23)n1 [AZD6738] + O=C(c1cc(Cc2n[nH]c(=O)c3ccccc23)ccc1F)N1CCN(C(=O)C2CC2)CC1 [Olaparib] (first compound max 10 µM, 7x7, partner max 10 µM)
tested target: 786-0 (Kidney Carcinoma)
observed measurement: 0.0473

compound: CC(=O)c1c(C)c2cnc(Nc3ccc(N4CCNCC4)cn3)nc2n(C2CCCC2)c1=O [Palbociclib] + CC1(C)CCC(CN2CCN(c3ccc(C(=O)NS(=O)(=O)c4ccc(NCC5CCOCC5)c([N+](=O)[O-])c4)c(Oc4cnc5[nH]ccc5c4)c3)CC2)=C(c2ccc(Cl)cc2)C1 [Venetoclax] (first compound max 10 µM, 7x7, partner max 1 µM)
tested target: 786-0 (Kidney Carcinoma)
observed measurement: 0.0042

compound: COc1nnc2ccc(N3CCC(c4ccc(OCCN5CCN(C)C(=O)[C@H]5C)cc4)CC3)nn12 [AZD5153] + C=CCn1c(=O)c2cnc(Nc3ccc(N4CCN(C)CC4)cc3)nc2n1-c1cccc(C(C)(C)O)n1 [AZD1775] (first compound max 1 µM, partner max 1 µM)
tested target: 786-0 (Kidney Carcinoma)
observed measurement: -0.0163

compound: CS(=O)(=O)CCNCc1ccc(-c2ccc3ncnc(Nc4ccc(OCc5cccc(F)c5)c(Cl)c4)c3c2)o1 [Lapatinib] + C[C@@H](Oc1cc(-c2cnn(C3CCNCC3)c2)cnc1N)c1c(Cl)ccc(F)c1Cl [Crizotinib] (first compound max 10 µM, 7x7, partner max 10 µM)
tested target: 786-0 (Kidney Carcinoma)
observed measurement: -0.0666

compound: CN(CCO)CC[C@H](CSc1ccccc1)Nc1ccc(S(=O)(=O)NC(=O)c2ccc(N3CCC([C@@H](O)c4ccccc4-c4ccc(Cl)cc4)CC3)cc2)cc1S(=O)(=O)C(F)(F)F [AZD4320] + Cn1cnc2c(F)c(Nc3ccc(Br)cc3Cl)c(C(=O)NOCCO)cc21 [Selumetinib] (first compound max 1 µM, 7x7, partner max 3 µM)
tested target: 786-0 (Kidney Carcinoma)
observed measurement: -0.0187

compound: NC1(C(=O)N[C@@H](CCO)c2ccc(Cl)cc2)CCN(c2ncnc3[nH]ccc23)CC1 [Capivasertib] + C[C@@H]1COCCN1C2=NC(=NC(=C2)C3(CC3)[S@](=N)(=O)C)C4=C5C=CNC5=NC=C4 [AZD6738] (first compound max 10 µM, 7x7, partner max 10 µM)
tested target: 786-0 (Kidney Carcinoma)
observed measurement: -0.0708

compound: CC1(C)CCC(CN2CCN(c3ccc(C(=O)NS(=O)(=O)c4ccc(NCC5CCOCC5)c([N+](=O)[O-])c4)c(Oc4cnc5[nH]ccc5c4)c3)CC2)=C(c2ccc(Cl)cc2)C1 [Venetoclax] + C=CCn1c(=O)c2cnc(Nc3ccc(N4CCN(C)CC4)cc3)nc2n1-c1cccc(C(C)(C)O)n1 [AZD1775] (first compound max 1 µM, partner max 1 µM)
tested target: 786-0 (Kidney Carcinoma)
observed measurement: -0.0686

----------
Listing: combination Emax of selected compounds
test system: BALL-1 (B-Lymphoblastic Leukemia); assay: combination Emax (second highest fraction inhibited in the dose matrix, 72 h); higher = more inhibition; extreme values may be limits of the assay

compound: CN(CCO)CC[C@H](CSc1ccccc1)Nc1ccc(S(=O)(=O)NC(=O)c2ccc(N3CCC([C@@H](O)c4ccccc4-c4ccc(Cl)cc4)CC3)cc2)cc1S(=O)(=O)C(F)(F)F [AZD4320] + C[C@@H]1COCCN1C2=NC(=NC(=C2)C3(CC3)[S@](=N)(=O)C)C4=C5C=CNC5=NC=C4 [AZD6738] (first compound max 1 µM, 7x7, partner max 10 µM)
tested target: BALL-1 (B-Lymphoblastic Leukemia)
combination Emax: 1

compound: CC(=O)Nc1cccc(-n2c(=O)n(C3CC3)c(=O)c3c(Nc4ccc(I)cc4F)n(C)c(=O)c(C)c32)c1 [Trametinib] + Cc1nc(-c2cn3c(n2)-c2ccc(-c4cnn(C(C)(C)C(N)=O)c4)cc2OCC3)n(C(C)C)n1 [Taselisib] (first compound max 1 µM, 7x7, partner max 10 µM)
tested target: BALL-1 (B-Lymphoblastic Leukemia)
combination Emax: 0.532

compound: CN(CCO)CC[C@H](CSc1ccccc1)Nc1ccc(S(=O)(=O)NC(=O)c2ccc(N3CCC([C@@H](O)c4ccccc4-c4ccc(Cl)cc4)CC3)cc2)cc1S(=O)(=O)C(F)(F)F [AZD4320] + C1CN(CCC1(C(=O)N[C@@H](CCO)C2=CC=C(C=C2)Cl)N)C3=NC=NC4=C3C=CN4 [Capivasertib] (first compound max 1 µM, 7x7, partner max 3 µM)
tested target: BALL-1 (B-Lymphoblastic Leukemia)
combination Emax: 1

compound: Cc1cc2ncnn2cc1Nc1ncc2c(n1)n(C1CCOCC1)c(=O)n2C [AZD7648] + C[C@@H]1COCCN1C2=NC(=NC(=C2)C3(CC3)[S@](=N)(=O)C)C4=C5C=CNC5=NC=C4 [AZD6738] (first compound max 10 µM, 7x7, partner max 10 µM)
tested target: BALL-1 (B-Lymphoblastic Leukemia)
combination Emax: 0.986

compound: Cn1cnc2c(F)c(Nc3ccc(Br)cc3Cl)c(C(=O)NOCCO)cc21 [Selumetinib] + C=CCn1c(=O)c2cnc(Nc3ccc(N4CCN(C)CC4)cc3)nc2n1-c1cccc(C(C)(C)O)n1 [AZD1775] (first compound max 10 µM, partner max 1 µM)
tested target: BALL-1 (B-Lymphoblastic Leukemia)
combination Emax: 1

compound: COc1cccc(OCCCN)c1-c1cc(Nc2cnc(C#N)cn2)n[nH]1 [Prexasertib] + O=C(c1cc(Cc2n[nH]c(=O)c3ccccc23)ccc1F)N1CCN(C(=O)C2CC2)CC1 [Olaparib] (first compound max 1 µM, 7x7, partner max 10 µM)
tested target: BALL-1 (B-Lymphoblastic Leukemia)
combination Emax: 0.994

compound: Cc1cc2ncnn2cc1Nc1ncc2c(n1)n(C1CCOCC1)c(=O)n2C [AZD7648] + C=CCn1c(=O)c2cnc(Nc3ccc(N4CCN(C)CC4)cc3)nc2n1-c1cccc(C(C)(C)O)n1 [AZD1775] (first compound max 10 µM, partner max 1 µM)
tested target: BALL-1 (B-Lymphoblastic Leukemia)
combination Emax: 0.983

compound: CC1(C)CCC(CN2CCN(c3ccc(C(=O)NS(=O)(=O)c4ccc(NCC5CCOCC5)c([N+](=O)[O-])c4)c(Oc4cnc5[nH]ccc5c4)c3)CC2)=C(c2ccc(Cl)cc2)C1 [Venetoclax] + C[C@@H]1COCCN1C2=NC(=NC(=C2)C3(CC3)[S@](=N)(=O)C)C4=C5C=CNC5=NC=C4 [AZD6738] (first compound max 1 µM, 7x7, partner max 10 µM)
tested target: BALL-1 (B-Lymphoblastic Leukemia)
combination Emax: 1
